- System: Candida albicans
- TEST_NAME: Antimicrobial activity against Candida albicans MTCC 227
- Assay type: functional
MEASURE: MIC99 (µg/mL)
The figure you give is taken to be in µg/mL; do not add the unit.

Provide MIC99 value for the following molecule: Cc1ccc(C)c(-n2c(-c3ccccc3Cl)nc3ccc(CCn4c(-c5ccccc5Cl)nc5ccccc5c4=O)cc3c2=O)c1
200

Provide MIC99 value for the following molecule: Cc1ccc(-n2c(-c3ccccc3Cl)nc3ccc(CCn4c(-c5ccccc5Cl)nc5ccccc5c4=O)cc3c2=O)c(C)c1
100

Provide MIC99 value for the following molecule: COC1=CC(=O)C[C@@H](C)[C@]12Oc1c(Cl)c(OC)cc(OC)c1C2=O
500

Provide MIC99 value for the following molecule: Cc1ccc(-n2c(-c3ccccc3Cl)nc3ccc(CCn4c(-c5ccccc5Cl)nc5ccccc5c4=O)cc3c2=O)c([N+](=O)[O-])c1
500

Provide MIC99 value for the following molecule: O=c1c2ccccc2nc(-c2ccccc2Cl)n1CCc1ccc2nc(-c3ccccc3Cl)n(-c3c(Cl)cc([N+](=O)[O-])cc3Cl)c(=O)c2c1
500

Provide MIC99 value for the following molecule: Cc1cccc(-n2c(-c3ccccc3Cl)nc3ccc(CCn4c(-c5ccccc5Cl)nc5ccccc5c4=O)cc3c2=O)c1C
500

Provide MIC99 value for the following molecule: COc1ccc(-n2c(-c3ccccc3Cl)nc3ccc(CCn4c(-c5ccccc5Cl)nc5ccccc5c4=O)cc3c2=O)c([N+](=O)[O-])c1
100

Provide MIC99 value for the following molecule: O=c1c2ccccc2nc(-c2ccccc2Cl)n1CCc1ccc2nc(-c3ccccc3Cl)n(-c3ccc([N+](=O)[O-])cc3)c(=O)c2c1
500

Provide MIC99 value for the following molecule: O=c1c2ccccc2nc(-c2ccccc2Cl)n1CCc1ccc2nc(-c3ccccc3Cl)n(-c3ccc(Cl)c(Cl)c3)c(=O)c2c1
100

Provide MIC99 value for the following molecule: O=c1c2ccccc2nc(-c2ccccc2Cl)n1CCc1ccc2nc(-c3ccccc3Cl)n(-c3ccccc3[N+](=O)[O-])c(=O)c2c1
100

Provide MIC99 value for the following molecule: O=c1c2ccccc2nc(-c2ccccc2Cl)n1CCc1ccc2nc(-c3ccccc3Cl)n(-c3cccc([N+](=O)[O-])c3)c(=O)c2c1
1000

Provide MIC99 value for the following molecule: O=c1c2ccccc2nc(-c2ccccc2Cl)n1CCc1ccc2nc(-c3ccccc3Cl)n(-c3ccccc3Cl)c(=O)c2c1
500

Provide MIC99 value for the following molecule: O=c1c2ccccc2nc(-c2ccccc2Cl)n1CCc1ccc2nc(-c3ccccc3Cl)n(-c3ccc(Br)cc3)c(=O)c2c1
1000

---

- Tested on: Escherichia coli
- TEST_NAME: Antimicrobial activity against Escherichia coli MTCC 443 after 24 and 48 hr by serial broth dilution method
- Type: functional
Hi there, I'd appreciate the recorded MIC99 for every entry that follows.
The figure you give is taken to be in µg/mL; do not add the unit.

Provide MIC99 value for the following compound: Cc1ccc(-n2c(-c3ccccc3Cl)nc3ccc(CCn4c(-c5ccccc5Cl)nc5ccccc5c4=O)cc3c2=O)c(C)c1
50

Provide MIC99 value for the following compound: COc1ccc(-n2c(-c3ccccc3Cl)nc3ccc(CCn4c(-c5ccccc5Cl)nc5ccccc5c4=O)cc3c2=O)c([N+](=O)[O-])c1
100

Provide MIC99 value for the following compound: CC1(C)S[C@@H]2[C@H](NC(=O)[C@H](N)c3ccccc3)C(=O)N2[C@H]1C(=O)O [AMPICILLIN]
100

Provide MIC99 value for the following compound: Cc1ccc(C)c(-n2c(-c3ccccc3Cl)nc3ccc(CCn4c(-c5ccccc5Cl)nc5ccccc5c4=O)cc3c2=O)c1
100

Provide MIC99 value for the following compound: O=c1c2ccccc2nc(-c2ccccc2Cl)n1CCc1ccc2nc(-c3ccccc3Cl)n(-c3ccccc3Cl)c(=O)c2c1
500

Provide MIC99 value for the following compound: O=c1c2ccccc2nc(-c2ccccc2Cl)n1CCc1ccc2nc(-c3ccccc3Cl)n(-c3ccc([N+](=O)[O-])cc3)c(=O)c2c1
100

Provide MIC99 value for the following compound: O=c1c2ccccc2nc(-c2ccccc2Cl)n1CCc1ccc2nc(-c3ccccc3Cl)n(-c3ccccc3[N+](=O)[O-])c(=O)c2c1
100

Provide MIC99 value for the following compound: Cc1ccc(-n2c(-c3ccccc3Cl)nc3ccc(CCn4c(-c5ccccc5Cl)nc5ccccc5c4=O)cc3c2=O)c([N+](=O)[O-])c1
200

Provide MIC99 value for the following compound: O=c1c2ccccc2nc(-c2ccccc2Cl)n1CCc1ccc2nc(-c3ccccc3Cl)n(-c3ccc(Br)cc3)c(=O)c2c1
200
